System: Saccharomyces cerevisiae;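 note: PSI is a weighted mean of sequencing reads over stability bins, variants kept only with over 10 reads, mCherry proximal and sfGFP distal, peptide attached via GGGS linker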
Assay: protein stability index of tFT-peptide fusion (C-terminal peptide) (PSI (0-1 scale)); higher = more stable (slower turnover)
Conditions: genetic background: wild type; temperature: 30 C
Assign protein stability index to each entry below.
I'd appreciate a reply containing only the number, no unit.

Give protein stability index for "PSPLPGYFFTLS"
0.627

Give protein stability index for "SSPLVHWFSYLS"
0.682

Give protein stability index for "RVGGPGNRGGVV"
0.696

Give protein stability index for "EGSGEGEEAGGV"
0.65

Give protein stability index for "SRGGGEGTVGKK"
0.697

Give protein stability index for "PRPPALPFPLLA"
0.533

Give protein stability index for "FSLCFSSFSLFP"
0.676

Give protein stability index for "CGCGCPSRVLVS"
0.643

Give protein stability index for "WYMKFYNKKMKE"
0.702

Give protein stability index for "VGCVFVASRLVL"
0.627

Give protein stability index for "HINRTIWARYQV"
0.362

Give protein stability index for "KKEQKFKEDSDR"
0.677

Give protein stability index for "SYDNPPDTSRPR"
0.768

Give protein stability index for "SLPFLPPSAPLP"
0.76

Give protein stability index for "TRTRSMTQLVPL"
0.716

Give protein stability index for "IERKNYPQNRRQ"
0.62

Give protein stability index for "TSSASVCASSVQ"
0.588

Give protein stability index for "CELCVCKHGGKG"
0.702

Give protein stability index for "WGRGGSGGSWGA"
0.688

Give protein stability index for "GAAIRVNRCGEG"
0.641

Give protein stability index for "IYRWSGTVGGER"
0.697

Give protein stability index for "HSLRRLSLYVSL"
0.612

Give protein stability index for "PASSSFVCAVSR"
0.783

Give protein stability index for "SRWLLSLFTSSF"
0.762

Give protein stability index for "PARPLFAPSFFT"
0.699

Give protein stability index for "GFLGCGSGCGWG"
0.744

Give protein stability index for "SRGGGWSEGGEG"
0.716

Give protein stability index for "CLEGCTIHTSGE"
0.652

Give protein stability index for "DLPYLYPRCLIS"
0.727

Give protein stability index for "KKRVSKETDKVK"
0.693

Give protein stability index for "EGEVGGVVLPRI"
0.696

Give protein stability index for "SSVEREEEGGGG"
0.676

Give protein stability index for "SRLLLPIGISRV"
0.543

Give protein stability index for "FAFPQASHPVRI"
0.664

Give protein stability index for "SLLSLSPACLPL"
0.683

Give protein stability index for "HWRWGGRSGGDR"
0.707

Give protein stability index for "PLISYIEGGPTS"
0.674

Give protein stability index for "IFRTRISSSLWC"
0.685

Give protein stability index for "ECGLGGCGGLGV"
0.705

Give protein stability index for "LCLWVWGSVVGG"
0.612

Give protein stability index for "GYNARHILGRVG"
0.699

Give protein stability index for "KKKRKRKRSRRK"
0.639

Give protein stability index for "KDDEQESESKNN"
0.667

Give protein stability index for "YIFLPIALVFFP"
0.363

Give protein stability index for "PLPPPPPPPPPT"
0.681

Give protein stability index for "RLIARFKILRCI"
0.0979

Give protein stability index for "VFLILKPRDLTE"
0.667

Give protein stability index for "LWNFYELVVYAM"
0.212

Give protein stability index for "AVVWMGAGVGGV"
0.718

Give protein stability index for "VSFGFHKWCHSR"
0.638

Give protein stability index for "KNKKKNTIKKNK"
0.684

Give protein stability index for "CKYCKCVVLLWS"
0.434

Give protein stability index for "CSFCSGMILLLS"
0.418

Give protein stability index for "PPPAPPPLPTSP"
0.771

Give protein stability index for "PYPPPPALPSSF"
0.667
